measurement.target: PCSK9 (biotinylated Avi-tagged) (UniProt Q8NBP7;Q8NBP7 Q8NBP7:31-152,Q8NBP7:153-692)
Sequence (Q8NBP7 31-152, chain 1 of 2): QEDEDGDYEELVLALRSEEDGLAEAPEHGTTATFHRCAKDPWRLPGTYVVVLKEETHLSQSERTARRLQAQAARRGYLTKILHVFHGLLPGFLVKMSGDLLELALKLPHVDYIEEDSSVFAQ
Sequence (Q8NBP7 153-692, chain 2 of 2): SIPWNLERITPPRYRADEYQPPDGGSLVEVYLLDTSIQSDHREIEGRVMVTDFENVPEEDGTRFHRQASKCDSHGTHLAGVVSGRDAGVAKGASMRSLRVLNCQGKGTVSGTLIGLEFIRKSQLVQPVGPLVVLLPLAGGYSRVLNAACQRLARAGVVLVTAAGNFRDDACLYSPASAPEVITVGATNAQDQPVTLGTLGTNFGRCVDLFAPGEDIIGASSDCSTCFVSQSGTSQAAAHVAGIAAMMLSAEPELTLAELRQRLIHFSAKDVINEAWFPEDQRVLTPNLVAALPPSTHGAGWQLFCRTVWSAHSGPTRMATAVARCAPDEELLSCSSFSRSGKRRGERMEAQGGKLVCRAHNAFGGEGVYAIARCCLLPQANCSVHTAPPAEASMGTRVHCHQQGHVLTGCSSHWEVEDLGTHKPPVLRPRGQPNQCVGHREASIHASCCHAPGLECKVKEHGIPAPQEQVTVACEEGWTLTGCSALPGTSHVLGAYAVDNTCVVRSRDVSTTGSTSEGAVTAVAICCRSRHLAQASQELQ
protocol.details: SPR; immobilized PCSK9, 0.9x HBS-EP, 25 C
condition.label: tags: biotinylated Avi-tag, ACROBiosystems PC9-H82E7
test.readout: pKd
Give only the number. pKd is defined as minus log10 of concentration in molar units.

Let me know recorded pKd for TGCTACCGTTGTTTACCCTGCCACCTTCTGGAGTCCAGATGTAGGTAG (ssDNA, side chains as PCSK9-Evo5, 3' idT) [PCSK9-Evo5-syn] , thanks. 8.17
